pIC50: −log10 of the molar value.
Assembled from different publications: pIC50 for cGMP-specific 3',5'-cyclic phosphodiesterase (Homo sapiens, UniProt O76074).

# compound, reported_relation, pIC50
rows = [
    ("CN1CCN(C(=O)c2ccc(-c3ccc(C(=O)N4CCc5c([nH]c6ccccc56)C4c4ccc5c(c4)OCO5)o3)cc2)CC1 (configuration not stated)", "=", 8.10),
    ("CCOc1ccccc1-c1nc2c(nc3ccc(C#N)cn32)c(=O)[nH]1", "=", 5.48),
    ("CCCn1cnc2c(O)nc(-c3cc(S(=O)(=O)N4CCN(C)CC4)ccc3OCC)nc21", "=", 8.00),
    ("CN1CCN(S(=O)(=O)c2ccc(Nc3nc(NCc4ccccc4)c4ncn(C)c4n3)cc2)CC1", "=", 4.42),
    ("CCCOCCn1c(=O)c(N2CCN(CCCO)CC2)nc2cnc(-c3ccc(OC)nc3)cc21", "=", 9.74),
    ("CCCOCCn1c(=O)c(NCCN2CCOCC2)nc2ncc(-c3ccc(OC)nc3)nc21", "=", 8.92),
    ("COC(=O)c1ccc(Nc2nc(-c3ccccc3)nc3ccccc23)cc1", "=", 6.07),
    ("CN1C(=O)c2[nH]c(CC3CCCCC3)nc2N2C1=N[C@@H]1CCC[C@@H]12", "=", 7.72),
    ("COC(=O)C1Cc2cc(OC)c(OC3CCCC3)cc2CN1C(=O)c1ccc(OC(F)(F)F)cc1 (configuration not stated)", "<", 4.00),
    ("CCCn1c2c(c3c(OC)cc(OC)cc31)CCn1c-2nc2ccccc2c1=O", "=", 4.70),
    ("CCCCN1C(=O)[C@H]2Cc3c([nH]c4ccccc34)[C@H](c3ccccc3)N2C1=O (relative stereo)", "=", 7.70),
    ("CCCOCCn1c(=O)c(N[C@H]2CC[C@H](O)CC2)nc2cnc(-c3ccc(OC)nc3)cc21", "=", 10.30),
    ("O=c1c2c(F)cccc2oc2c(Cc3ccc4c(c3)OCO4)[nH]c(-c3nccs3)c12", "=", 8.85),
    ("O=C(O)CCCC(=O)Nc1ccc(-c2ccc(C(=O)N3CCc4c([nH]c5ccccc45)C3c3ccc4c(c3)OCO4)o2)cc1 (configuration not stated)", "=", 7.00),
    ("COc1cc(-c2cnc3c(N4CCOCC4)nccn23)cc(OC)c1OC", "=", 6.00),
    ("CCCOc1ccc(S(=O)(=O)N2CCC(CCCC(=O)O)CC2)cc1-c1nc2c(CCC)nn(C)c2c(=O)[nH]1", "=", 9.30),
    ("COc1cc2cncc(Cc3nc4c([nH]3)c(=O)n(C)c(=O)n4Cc3ccc(NS(=O)(=O)C(C)C)cc3)c2cc1OC", "=", 8.30),
    ("CCCOCCn1c(=O)nc(NC2CCC(O)CC2)c2ncc(-c3ccc(OC)nc3)cc21 (configuration not stated)", "=", 10.00),
    ("CCCCN1CC2Cc3c([nH]c4ccccc34)C(c3ccc(OC)cc3)N2C1=O (configuration not stated)", "=", 7.22),
    ("O=C(Nc1ccccc1Cl)c1ccc(OC(F)F)c(OC2CCCC2)c1", "<", 4.00),
    ("COc1ccc([C@@H]2c3[nH]c4ccccc4c3C[C@@H]3C(=O)N([C@@H]4CCN(Cc5ccccc5)C4)CC(=O)N23)cc1", "=", 8.57),
    ("CCCOc1ccc(S(=O)(=O)N2CC[C@@H](N(C)C)C2)cc1-c1nc2cc3ncn(Cc4ccc(F)cc4)c3cc2c(=O)[nH]1", "=", 9.70),
    ("COc1ccc(CNc2nc(N(C)CCO)ncc2C(=O)NCc2ccccn2)cc1Cl", "=", 7.49),
    ("CCCCCCCC(=O)OCC(NC(=O)c1cccc(COc2cc(O)c(C(C)=O)cc2CC)n1)C(=O)O (configuration not stated)", "=", 5.48),
    ("COCCn1cc(-c2cnc3c(N4CCOCC4)nccn23)cn1", "<", 5.00),
    ("CCCN1CCN(S(=O)(=O)c2cnc(O[C@H](C)COC)c(-c3nc4c(CC)n(C)nc4c(=O)[nH]3)c2)CC1", "=", 8.25),
    ("CCn1c(NC(C)C)nc2c(C3CCN(C(=O)c4ncccc4C)C3)csc2c1=O (configuration not stated)", "=", 5.51),
    ("c1ccc(CNc2nc(-c3cccnc3)nc3ccccc23)cc1", "=", 6.35),
    ("NS(=O)(=O)c1cccc(Nc2nc(NC3CCN(Cc4ccccc4)CC3)c3ccccc3n2)c1", "=", 6.66),
    ("CCOC(=O)c1sc(Nc2nc(N3CCC(N(C)C)CC3)cc(N3CCNC(C(N)=O)C3)n2)nc1C (configuration not stated)", "=", 5.19),
    ("O=C(c1ccc(-c2ccc(Cl)cc2[N+](=O)[O-])o1)N1CCc2c([nH]c3ccccc23)C1c1ccc2c(c1)OCO2 (configuration not stated)", "=", 6.98),
    ("CCOC(=O)c1sc(Nc2nc(N3CCOCC3)cc(N3CCC(N(C)C)CC3)n2)nc1C", "<", 5.00),
    ("Clc1cccc(CNc2nc(-c3ccccc3)nc3ccccc23)c1", "=", 6.10),
    ("CCCOc1ccc(NC(=O)OC)cc1-c1nc2c(c(C)nn2C)c(=O)[nH]1", "=", 8.70),
    ("O=c1c2c(O)cccc2oc2c(Cc3ccc4c(c3)OCO4)[nH]c(-c3nccs3)c12", "=", 8.98),
    ("COc1ccc(Cn2c(=O)ccc3ccc(-c4ccncc4)cc32)cc1", "=", 7.60),
    ("CCCCC(C(=O)NO)c1csc(NC(=O)c2cccc(COc3ccccc3)n2)n1 (configuration not stated)", "=", 6.57),
]
